biological target: bovine serum albumin (BSA) (Bos taurus); construct: purchased Sigma-Aldrich; assay: Fluorescence quenching of bovine serum albumin by mycotoxins; type: binding
Sequence (P02769 25-607): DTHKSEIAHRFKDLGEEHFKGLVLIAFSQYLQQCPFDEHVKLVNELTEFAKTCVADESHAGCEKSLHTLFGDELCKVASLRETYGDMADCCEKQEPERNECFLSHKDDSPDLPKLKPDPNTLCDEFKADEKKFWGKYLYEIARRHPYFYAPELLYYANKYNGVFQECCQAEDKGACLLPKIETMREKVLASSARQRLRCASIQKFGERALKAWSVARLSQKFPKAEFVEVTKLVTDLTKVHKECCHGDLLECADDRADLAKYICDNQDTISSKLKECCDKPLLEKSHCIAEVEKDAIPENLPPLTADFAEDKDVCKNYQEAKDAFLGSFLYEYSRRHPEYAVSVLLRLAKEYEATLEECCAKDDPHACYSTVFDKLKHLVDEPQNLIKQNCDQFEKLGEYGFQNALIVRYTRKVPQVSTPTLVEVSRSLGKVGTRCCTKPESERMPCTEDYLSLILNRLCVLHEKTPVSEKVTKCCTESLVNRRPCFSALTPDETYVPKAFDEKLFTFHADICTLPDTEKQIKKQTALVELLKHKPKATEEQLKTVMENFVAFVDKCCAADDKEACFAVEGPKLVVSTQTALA
Where a name gives a salt, the structure may show the parent alone.
Below, each entry is listed with its recorded Kd.
Measurement kind: Kd

- Compound: "C[C@H]1CCCC(=O)CCC/C=C/c2cc(OS(=O)(=O)O)cc(O)c2C(=O)O1 [Z14S, Zearalenone-14-sulfate ammonium salt]"
  Study target: "bovine serum albumin (BSA) (Bos taurus)"
  Result: "3.72 µM"
- Compound: "C[C@H]1CCC[C@@H](O)CCCCCc2cc(O)cc(O)c2C(=O)O1"
  Study target: "bovine serum albumin (BSA) (Bos taurus)"
  Result: "75.9 µM"
- Compound: "C[C@H]1CCC[C@H](O)CCCCCc2cc(O)cc(O)c2C(=O)O1"
  Study target: "bovine serum albumin (BSA) (Bos taurus)"
  Result: "45.7 µM"

###

Property: logKSV ± SEM (Stern-Volmer quenching constant); scope: individual compounds
target: human serum albumin (HSA) (Homo sapiens); construct: purchased Sigma-Aldrich; test: Fluorescence quenching of human serum albumin by mycotoxins; type: binding; conditions: HSA 2 μmol/L, PBS pH 7.4, room temperature, λex = 295 nm, λem = 340 nm
Sequence (P02768 25-609): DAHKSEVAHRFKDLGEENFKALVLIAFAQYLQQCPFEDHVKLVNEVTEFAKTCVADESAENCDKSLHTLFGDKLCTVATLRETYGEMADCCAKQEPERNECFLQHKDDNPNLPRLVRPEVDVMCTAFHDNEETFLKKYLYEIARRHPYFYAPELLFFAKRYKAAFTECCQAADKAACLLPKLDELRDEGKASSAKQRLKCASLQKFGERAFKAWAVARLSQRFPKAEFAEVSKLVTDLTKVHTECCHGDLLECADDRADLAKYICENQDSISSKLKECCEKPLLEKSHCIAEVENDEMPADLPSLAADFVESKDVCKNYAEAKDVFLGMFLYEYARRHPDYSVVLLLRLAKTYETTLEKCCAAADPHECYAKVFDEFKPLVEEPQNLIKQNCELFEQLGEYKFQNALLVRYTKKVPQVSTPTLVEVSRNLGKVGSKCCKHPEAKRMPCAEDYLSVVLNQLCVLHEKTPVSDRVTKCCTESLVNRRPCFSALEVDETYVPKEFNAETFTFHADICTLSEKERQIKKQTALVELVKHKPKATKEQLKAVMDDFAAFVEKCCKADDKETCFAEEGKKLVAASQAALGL
Counter-ions that a name gives are not always drawn.
Measurement kind: logKSV ± SEM (Stern-Volmer quenching constant) (L/mol)

- Compound: "C[C@H]1CCC[C@H](O)CCCCCc2cc(O)cc(O)c2C(=O)O1 [α-ZAL, α-zearalanol]"
  Recorded number: 4.50
- Compound: "C[C@H]1CCCC(=O)CCC/C=C/c2cc(OS(=O)(=O)O)cc(O)c2C(=O)O1 [Z14S, Zearalenone-14-sulfate ammonium salt]"
  Recorded number: 4.64
- Compound: "C[C@H]1CCC[C@@H](O)CCCCCc2cc(O)cc(O)c2C(=O)O1 [β-ZAL, β-zearalanol]"
  Recorded number: 4.34
- Compound: "C[C@H]1CCCC(=O)CCCCCc2cc(O)cc(O)c2C(=O)O1 [ZAN, zearalanone]"
  Recorded number: 4.52

###

target: rat serum albumin (RSA) (Rattus norvegicus); assay: Fluorescence quenching of rat serum albumin by mycotoxins
Sequence (P02770 25-608): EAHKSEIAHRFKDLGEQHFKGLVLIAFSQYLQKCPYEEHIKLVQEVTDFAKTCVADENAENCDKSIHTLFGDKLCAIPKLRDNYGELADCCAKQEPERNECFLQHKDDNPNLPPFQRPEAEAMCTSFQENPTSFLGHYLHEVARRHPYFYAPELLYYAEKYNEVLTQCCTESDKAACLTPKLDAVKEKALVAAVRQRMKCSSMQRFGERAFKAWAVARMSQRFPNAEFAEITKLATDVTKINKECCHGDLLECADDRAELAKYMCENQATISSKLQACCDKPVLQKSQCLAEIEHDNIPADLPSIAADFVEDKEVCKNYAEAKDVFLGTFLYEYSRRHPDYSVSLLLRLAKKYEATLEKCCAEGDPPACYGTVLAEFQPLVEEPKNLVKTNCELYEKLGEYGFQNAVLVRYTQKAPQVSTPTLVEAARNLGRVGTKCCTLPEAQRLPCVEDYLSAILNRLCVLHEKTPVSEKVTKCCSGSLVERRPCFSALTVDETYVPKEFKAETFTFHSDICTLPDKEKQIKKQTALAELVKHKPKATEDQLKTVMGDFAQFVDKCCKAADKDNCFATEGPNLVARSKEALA
pKd: −log10 of the molar value. Structures can show the parent of a compound that is named as a salt.
# key: entry, value: pKd

- Compound: "C[C@H]1CCC[C@@H](O)CCCCCc2cc(O)cc(O)c2C(=O)O1"
  Study target: "rat serum albumin (RSA) (Rattus norvegicus)"
  pKd: 5.61
- Compound: "C[C@H]1CCC[C@H](O)CCCCCc2cc(O)cc(O)c2C(=O)O1"
  Study target: "rat serum albumin (RSA) (Rattus norvegicus)"
  pKd: 5.31
- Compound: "C[C@H]1CCCC(=O)CCC/C=C/c2cc(OS(=O)(=O)O)cc(O)c2C(=O)O1 [Z14S, Zearalenone-14-sulfate ammonium salt]"
  Study target: "rat serum albumin (RSA) (Rattus norvegicus)"
  pKd: 5.93
- Compound: "C[C@H]1CCCC(=O)CCCCCc2cc(O)cc(O)c2C(=O)O1"
  Study target: "rat serum albumin (RSA) (Rattus norvegicus)"
  pKd: 5.12

###

target: porcine serum albumin (PSA) (Sus scrofa); test: Fluorescence quenching of porcine serum albumin by mycotoxins
Sequence (P08835 25-607): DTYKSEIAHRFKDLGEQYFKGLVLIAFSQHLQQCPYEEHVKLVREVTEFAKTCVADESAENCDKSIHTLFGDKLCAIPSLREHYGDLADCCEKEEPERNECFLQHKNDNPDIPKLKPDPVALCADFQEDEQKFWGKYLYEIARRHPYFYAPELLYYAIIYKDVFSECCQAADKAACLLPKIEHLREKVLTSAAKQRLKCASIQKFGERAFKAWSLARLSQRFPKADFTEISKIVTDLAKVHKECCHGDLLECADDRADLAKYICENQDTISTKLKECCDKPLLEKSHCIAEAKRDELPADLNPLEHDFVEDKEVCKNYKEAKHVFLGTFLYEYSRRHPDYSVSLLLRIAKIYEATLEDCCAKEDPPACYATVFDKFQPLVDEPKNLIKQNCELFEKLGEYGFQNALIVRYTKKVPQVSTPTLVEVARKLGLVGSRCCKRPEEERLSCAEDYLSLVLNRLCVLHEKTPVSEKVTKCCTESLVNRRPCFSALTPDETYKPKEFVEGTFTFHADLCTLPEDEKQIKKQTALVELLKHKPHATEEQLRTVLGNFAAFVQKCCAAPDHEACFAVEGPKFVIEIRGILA
pKd: −log10 of the molar value. Structures can show the parent of a compound that is named as a salt.

- Compound: "C[C@H]1CCCC(=O)CCC/C=C/c2cc(OS(=O)(=O)O)cc(O)c2C(=O)O1 [Z14S, Zearalenone-14-sulfate ammonium salt]"
  Study target: "porcine serum albumin (PSA) (Sus scrofa)"
  pKd: 5.12
- Compound: "C[C@H]1CCC[C@H](O)CCCCCc2cc(O)cc(O)c2C(=O)O1 [α-ZAL, α-zearalanol]"
  Study target: "porcine serum albumin (PSA) (Sus scrofa)"
  pKd: 4.38
- Compound: "C[C@H]1CCC[C@@H](O)CCCCCc2cc(O)cc(O)c2C(=O)O1 [β-ZAL, β-zearalanol]"
  Study target: "porcine serum albumin (PSA) (Sus scrofa)"
  pKd: 4.15
- Compound: "C[C@H]1CCCC(=O)CCCCCc2cc(O)cc(O)c2C(=O)O1 [ZAN, zearalanone]"
  Study target: "porcine serum albumin (PSA) (Sus scrofa)"
  pKd: 3.97
